biological target: KRAS G12C (Homo sapiens (Human), UniProt P01116, C118A/G12C); assay: 2 h coupled exchange assay; type: biochemical; conditions: Avg 2 h Coupled exchange IC50, 2 h compound pre-incubation
Sequence (P01116 other isoform, or with tags, fused parts or gaps G12C/C118A): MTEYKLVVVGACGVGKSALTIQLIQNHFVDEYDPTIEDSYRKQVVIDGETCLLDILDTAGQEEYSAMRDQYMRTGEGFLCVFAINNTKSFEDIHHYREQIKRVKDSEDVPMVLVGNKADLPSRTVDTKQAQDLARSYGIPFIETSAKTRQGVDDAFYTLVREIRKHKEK
Reported Endpoint: pIC50
Please report pIC50 as the negative decimal logarithm of the molar concentration, giving only the number.

Recorded pIC50 for C=CC(=O)N1CC2(CCN(c3nc4c(c(-c5cccc6cn[nH]c56)c3C#N)C[C@H]3C[C@@H]4C3(C)C)C2)C1 [Example 14-25] , please?
6.96

Okay, and C=CC(=O)N1CC2(CCN(c3nc4cc(-c5scnc5C)ccc4c(-c4ccccc4F)c3C#N)C2)C1 [Example 20-2] ?
6.84

Entry C=CC(=O)N1CC2(CCN(c3nc4cc(-c5ocnc5C)ccc4c(-c4ccccc4F)c3C#N)C2)C1 [Example 17-10] please
6.24

Could you do the same for C=CC(=O)N1CC2(CCN(c3nc4c(OC)cccc4c(-c4c(C)ccc5[nH]ncc45)c3C#N)C2)C1 [Example 14-47] , please?
6.32

Next compound: C=CC(=O)N1CC2(CCN(c3nc4cc(-c5scnc5C)ccc4c(-c4ccccc4C)c3C#N)C2)C1 [Example 19-2]
6.90

What do you have for C=CC(=O)N1CC2(CCN(c3nc4c(c(-c5cc(O)ccc5C)c3F)C[C@H]3C[C@@H]4C3(C)C)C2)C1 [Example 14-50] ?
7.19

Subsequent entry: C=CC(=O)N1CC2(CCN(c3nc4c(c(-c5c(C)ccc6cn[nH]c56)c3C#N)COC(C)(C)C4)C2)C1 [Example 14-80]
7.05
